Target: ETS1 (UniProt P14921)
Sequence: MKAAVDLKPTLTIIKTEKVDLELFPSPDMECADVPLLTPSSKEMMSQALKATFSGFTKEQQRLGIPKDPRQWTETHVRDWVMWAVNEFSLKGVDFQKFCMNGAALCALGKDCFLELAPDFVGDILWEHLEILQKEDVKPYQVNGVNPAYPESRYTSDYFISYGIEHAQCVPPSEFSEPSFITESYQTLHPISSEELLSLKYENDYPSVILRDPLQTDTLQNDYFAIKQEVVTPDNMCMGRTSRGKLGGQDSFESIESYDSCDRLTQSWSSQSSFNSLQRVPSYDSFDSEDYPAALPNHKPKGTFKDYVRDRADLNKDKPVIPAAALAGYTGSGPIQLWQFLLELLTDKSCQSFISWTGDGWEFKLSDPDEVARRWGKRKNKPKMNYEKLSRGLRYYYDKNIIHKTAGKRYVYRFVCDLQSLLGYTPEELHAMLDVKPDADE
Test: ETS1 binding intensity (PBM fluorescence), ETS1 alone (arbitrary fluorescence units); higher = stronger binding
Conditions: ETS1 concentration 1 nM; RUNX1 concentration 0 nM
The full ranking holds about 4,100 sequences; the median of “arbitrary fluorescence units” is about 780, and the highest 2% start at about 22,000. This is one part of a sample in which the highest values are shown more often than they occur.
Binary call on ETS1 binding intensity: true from 2000 upward, false beneath that.

Take a look at these entries with their results.
GGATCGGCCTGAGGTGTGTCTCATTTCCTGTAGGTA = true
AAACTACTTCCCCATATCATCTGTAGCTTGCACAAC = false
ACTTTGTCAGTGTAGTTTTCACATCCTGTCCTAGCT = true

Query block: // inclusive: ETS1 binding intensity at least 2000? input: AACATCCTGTGTAAAGAGAATTGAATGTAGTTTTCT
Result block: true

Query block: // inclusive: ETS1 binding intensity at least 2000? input: GGGACTGCAGTCCCGGGGAGCGCACCGGAAGTTCTC
Result block: true

###

Target: ETS1 (UniProt P14921)
Sequence: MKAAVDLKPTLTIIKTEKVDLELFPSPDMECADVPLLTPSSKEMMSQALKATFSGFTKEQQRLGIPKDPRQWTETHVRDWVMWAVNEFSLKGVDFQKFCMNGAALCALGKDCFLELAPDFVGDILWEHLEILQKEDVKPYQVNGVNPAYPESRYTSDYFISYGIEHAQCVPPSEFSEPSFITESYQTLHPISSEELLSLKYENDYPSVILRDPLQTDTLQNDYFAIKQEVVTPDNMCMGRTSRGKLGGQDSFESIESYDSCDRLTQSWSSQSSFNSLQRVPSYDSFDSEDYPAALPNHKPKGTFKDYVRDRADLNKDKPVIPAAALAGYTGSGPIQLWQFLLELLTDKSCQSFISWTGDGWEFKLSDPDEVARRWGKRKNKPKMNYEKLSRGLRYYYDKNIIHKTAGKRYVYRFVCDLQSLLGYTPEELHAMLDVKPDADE
Test: ETS1 binding intensity (PBM fluorescence), ETS1 alone (arbitrary fluorescence units); higher = stronger binding
Settings: ETS1 concentration 1 nM; RUNX1 concentration 0 nM
Whole data set: some 4,100 sequences, median “arbitrary fluorescence units” near 780, cut for the highest 2% near 22,000. Many of the other results were omitted from the sample, so the highest values are more common in it than they were.
testReadout: ETS1 binding intensity
One number for each entry.

Each sequence below has a recorded value; state its ETS1 binding intensity.
1. GTGGCTGTCGTTGAACTGACTCTCGGGTTTCCGCTC
2. AGCTTCCGAGTCTGTTGTGGAGTGGGAACAGCGACT

Result block:
[606, 2510]

Each sequence below has a recorded value; state its ETS1 binding intensity.
1. GACTTCCTGTTGAAGATTGGCCTCTTCGGTAGCACA
2. TGAACTCCGCCCAGCGCGATCCGGAAGCCTAGCGCC
3. GGCCAAGAAATCCACTCAGAGGAAATCACAGGCCTG
4. TTTCACTTCCGGCATGTTTTTCACCTACAGGGATAT
5. CGGGCACGTCCTACGGCAGCAACGTCCGCCGCGCCG

Result block:
44600
443
439
35500
540

Each sequence below has a recorded value; state its ETS1 binding intensity.
1. GATGGGCTGGGGATGTGGCCTGTTTGCCGCTGGCGA
2. GAGCTGCAAGTCACAAAGACCGGAAGTGCGCGTACG
3. GGGGCAGGAAGTGGAGGTTTGAAGTGCTTTAGAGTA
4. GAGGGCTGCTTCCTGCTCTGTGGAGGCCGCTGAGGG
5. GAACTTCCGGGACCACGTGACGTAGAACTACAACAA

Result block:
361
26000
7390
6710
32800

Each sequence below has a recorded value; state its ETS1 binding intensity.
1. CCCGGAGGACGTCCGGCCTCTGTGAGCCGCCACCTT
2. TTTCGAGAAAACCGGAAGTGCGTGGACACGCCCCGC
3. CCTGCTGTGACTTCGGCTGTTTTCCTGGCCTGTGAG
4. AGTAACCAGCAGGCTGTGCCGGCAGGATGTTGTCTT
5. CTCCATTATTCCGGCCAGGTGCCCTTCTGGGATAAG
6. GTAGCAACAGCAGGCTCACACACCGGAAGTGCTCGC
7. GGCCGACGGGAAGTGTAGTCCGGCCTGCAGTCCGGG

Result block:
1: 4500; 2: 31500; 3: 387; 4: 469; 5: 670; 6: 9380; 7: 1970

All figures here come from the supplement of paper PMC10681739.
